tested on: SNB-19; assay: NCI tumour cell line growth inhibition, 48 h
Active and inactive are the calls of the source. Rule as the data show it: active = GI50 up to about 1.1 µM and inactive = higher.
measured attribute: GI50

Worked examples, 2 compounds total:
1. COCC1OC(Sc2ccccc2)C(O)C(OC)C1OC (stereo not drawn) | > 100 µM (inactive)
2. COC(=O)/C=C(C)/C=C\COC1CCCCO1 (stereo not drawn) | > 100 µM (inactive)

Quick check: GI50 of COC(=O)[C@]12CCC(=O)N1[C@H](C(=O)O)Cc1c2[nH]c2ccccc12 ?
> 100 µM (inactive)

###

tested on: LXFL 529; experiment: NCI tumour cell line growth inhibition, 48 h
The source made the active and inactive calls. Rule as the data show it: active = GI50 up to about 1.1 µM and inactive = higher.
Classes to choose from: true (1) (active), false (0) (inactive)

1. N=C(N)N/N=C/c1c[nH]c2ccccc12 | false (0)
2. CC(=O)NC(CCCCN(Cc1ccccc1)C(=O)N(C)N=O)C(=O)NCc1ccccc1 (stereo not given) | false (0)
3. CNCCCNc1c2ccccc2nc2cccc([N+](=O)[O-])c12 | true (1)
4. CCC1=CC2CN3Cn4c(c(COCc5c6n(c7ccccc57)CN5CC7C=C(CC)C5C6(C(=O)OC)C7)c5ccccc54)C(C(=O)OC)(C2)C13 | false (0)

Next, consider the following compound.
Test call, this compound: CC[C@@H](C(=O)[C@@H](C)[C@@H](O)[C@H](C)CCc1ccc(C)c(O)c1C(=O)O)[C@H]1O[C@](CC)([C@H]2CC[C@](O)(CC)[C@H](C)O2)C[C@@H]1C [LASALOCID A SODIUM]
false (0)

Origin of values: ChEMBL document CHEMBL1201862
